Target: HLA-A*02:01 (human)
Assay: REVEAL MHC-peptide binding assay, recombinant HLA
Conditions: remark: other sources report otherwise
readoutKind: In Vitro Score (% of positive control peptide)

| binder | reportedMeasurement |
| --- | --- |
| IIFWVKRGS | 13.6 |
| IFWVQRGRK | 6.1 |
| WVKRGAKKL | 4.7 |
| AFIIFWVSR | 4.5 |
| WVQRGNKKL | 4.3 |

P: IIFWVSRGR
Q: FIIFWVHRG
R: IIFWVQRGR
Put the entries in order of In Vitro Score (% of positive control peptide), starting with the largest number. Please, when replying, give the labels in the order that was requested. Q, R, P
(Q: 37.3, R: 5.8, P: 2.6)

1: WVKRGNKKL
2: IFWVQRGNK
Given the listed items, does 1 or 2 have the lesser reported In Vitro Score (% of positive control peptide)? Kindly give the label for the entry you pick. 1
